measured_target: T1, IL10Rα/IL2Rγ receptor (human) (UniProt Q13651)
T1 sequence (looked up) 1: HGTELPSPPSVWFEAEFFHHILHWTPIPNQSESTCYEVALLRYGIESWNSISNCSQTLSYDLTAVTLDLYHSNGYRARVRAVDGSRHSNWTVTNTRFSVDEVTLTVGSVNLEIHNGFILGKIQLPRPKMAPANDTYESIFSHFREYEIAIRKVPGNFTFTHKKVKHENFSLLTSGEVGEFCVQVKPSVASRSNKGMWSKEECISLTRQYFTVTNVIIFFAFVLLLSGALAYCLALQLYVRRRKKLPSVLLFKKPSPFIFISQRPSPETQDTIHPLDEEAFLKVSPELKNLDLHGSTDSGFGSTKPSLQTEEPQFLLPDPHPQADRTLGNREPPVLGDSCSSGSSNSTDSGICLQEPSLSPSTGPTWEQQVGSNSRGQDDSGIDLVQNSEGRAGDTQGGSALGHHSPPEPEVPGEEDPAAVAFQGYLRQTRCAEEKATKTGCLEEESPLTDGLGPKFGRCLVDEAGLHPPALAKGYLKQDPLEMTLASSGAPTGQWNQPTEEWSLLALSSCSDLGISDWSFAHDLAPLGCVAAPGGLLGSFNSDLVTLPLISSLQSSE
T1 sequence (looked up) 2: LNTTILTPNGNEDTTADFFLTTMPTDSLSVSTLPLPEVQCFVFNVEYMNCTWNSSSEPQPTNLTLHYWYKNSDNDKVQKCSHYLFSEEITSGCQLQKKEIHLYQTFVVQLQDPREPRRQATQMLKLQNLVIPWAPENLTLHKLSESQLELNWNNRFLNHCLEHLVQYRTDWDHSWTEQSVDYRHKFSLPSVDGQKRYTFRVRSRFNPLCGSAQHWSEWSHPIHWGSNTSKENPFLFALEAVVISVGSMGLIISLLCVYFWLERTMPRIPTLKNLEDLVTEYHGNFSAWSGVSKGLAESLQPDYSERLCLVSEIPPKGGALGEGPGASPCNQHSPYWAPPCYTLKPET
assay_notes: cell-based or functional assay
Property: Granzyme B secretion, CD8 T cells, at 1 µM; scope: individual binders
readout_name: Granzyme B secretion, CD8 T cells, at 1 µM (pg/mL)

[[record]]
binder = "hIL10Ra_VHH14 - hIL2Rg_VHH19, linker GS, tag his (bispecific antibody, not shown: small tags and cut ends) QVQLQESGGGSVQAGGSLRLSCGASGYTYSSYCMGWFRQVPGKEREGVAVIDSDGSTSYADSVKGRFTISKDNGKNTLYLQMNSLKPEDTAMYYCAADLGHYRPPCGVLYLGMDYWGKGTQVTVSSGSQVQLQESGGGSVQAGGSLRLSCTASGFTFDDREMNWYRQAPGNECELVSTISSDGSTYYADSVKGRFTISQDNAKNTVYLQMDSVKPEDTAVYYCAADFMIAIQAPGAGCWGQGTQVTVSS"
reported_result = 80200

[[record]]
binder = "hIL10Ra_VHH14 - hIL2Rg_VHH19, linker GGGSGGGS, tag his (bispecific antibody, not shown: small tags and cut ends) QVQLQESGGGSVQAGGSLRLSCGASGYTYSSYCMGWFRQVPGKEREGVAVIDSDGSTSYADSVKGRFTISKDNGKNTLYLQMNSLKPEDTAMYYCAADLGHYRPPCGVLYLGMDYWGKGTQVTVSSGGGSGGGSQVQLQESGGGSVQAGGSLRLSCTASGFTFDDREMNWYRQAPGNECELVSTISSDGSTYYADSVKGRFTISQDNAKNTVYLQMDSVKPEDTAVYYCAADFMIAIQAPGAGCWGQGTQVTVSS"
reported_result = 80500

[[record]]
binder = "hIL10Ra_VHH14 - hIL2Rg_VHH19, linker GGSGGS, tag his (bispecific antibody, not shown: small tags and cut ends) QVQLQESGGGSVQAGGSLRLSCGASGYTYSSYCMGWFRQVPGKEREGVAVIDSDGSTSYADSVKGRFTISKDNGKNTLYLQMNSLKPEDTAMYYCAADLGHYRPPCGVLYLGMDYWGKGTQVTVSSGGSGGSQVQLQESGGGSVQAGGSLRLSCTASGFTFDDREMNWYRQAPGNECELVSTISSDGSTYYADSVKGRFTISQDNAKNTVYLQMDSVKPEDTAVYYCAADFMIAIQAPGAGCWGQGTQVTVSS"
reported_result = 77600

